Recorded PMA-induced TGFα release from PC3 cells, percent inhibition, 1 µg/ml, one value per entry.
- TGT: T1, human iRhom2, endogenously expressed (human, UniProt Q6PJF5 1-856)
- T1 sequence: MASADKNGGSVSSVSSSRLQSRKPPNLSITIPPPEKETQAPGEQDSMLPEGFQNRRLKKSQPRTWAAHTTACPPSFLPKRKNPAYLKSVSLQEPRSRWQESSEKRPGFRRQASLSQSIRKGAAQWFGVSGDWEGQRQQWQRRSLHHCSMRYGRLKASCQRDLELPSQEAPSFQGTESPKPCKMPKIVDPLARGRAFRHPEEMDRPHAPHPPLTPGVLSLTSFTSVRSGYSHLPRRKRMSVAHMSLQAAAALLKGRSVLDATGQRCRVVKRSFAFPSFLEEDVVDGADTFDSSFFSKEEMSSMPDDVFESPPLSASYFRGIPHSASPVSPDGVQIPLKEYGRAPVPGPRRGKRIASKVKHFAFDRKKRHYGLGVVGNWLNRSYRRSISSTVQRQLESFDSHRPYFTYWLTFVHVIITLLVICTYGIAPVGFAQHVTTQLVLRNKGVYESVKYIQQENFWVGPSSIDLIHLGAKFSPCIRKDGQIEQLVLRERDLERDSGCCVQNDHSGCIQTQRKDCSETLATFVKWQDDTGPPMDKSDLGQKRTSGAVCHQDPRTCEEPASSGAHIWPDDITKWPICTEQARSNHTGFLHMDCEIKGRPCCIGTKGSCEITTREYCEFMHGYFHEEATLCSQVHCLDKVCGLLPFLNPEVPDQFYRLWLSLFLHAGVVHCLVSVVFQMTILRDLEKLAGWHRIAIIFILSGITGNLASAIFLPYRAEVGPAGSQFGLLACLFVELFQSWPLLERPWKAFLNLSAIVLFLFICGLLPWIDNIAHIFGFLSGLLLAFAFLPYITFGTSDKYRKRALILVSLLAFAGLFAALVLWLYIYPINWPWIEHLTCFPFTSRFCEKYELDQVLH
- TEST_SUMMARY: cell-based or functional assay
// return numeric value only (unit: %, not printed)

Solved cases below.
BINDER	MEAS_VALUE
antibody 44 (antibody, V domains shown, mouse IgG, kappa light chain; also called clone #44; purified antibody 44) VH: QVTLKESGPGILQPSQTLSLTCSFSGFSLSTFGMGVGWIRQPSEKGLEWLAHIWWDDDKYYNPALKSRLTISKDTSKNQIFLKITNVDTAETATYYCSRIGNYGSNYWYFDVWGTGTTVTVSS VL: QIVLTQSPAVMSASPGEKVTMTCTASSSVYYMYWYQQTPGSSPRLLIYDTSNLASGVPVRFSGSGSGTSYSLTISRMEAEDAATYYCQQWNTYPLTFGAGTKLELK	14.1
antibody 22 (antibody, V domains shown, mouse IgG, kappa light chain; also called clone #22; purified antibody 22) VH: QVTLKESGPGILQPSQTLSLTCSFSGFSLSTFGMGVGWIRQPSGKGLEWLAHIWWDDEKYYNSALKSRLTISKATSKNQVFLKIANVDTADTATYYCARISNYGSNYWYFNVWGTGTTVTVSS VL: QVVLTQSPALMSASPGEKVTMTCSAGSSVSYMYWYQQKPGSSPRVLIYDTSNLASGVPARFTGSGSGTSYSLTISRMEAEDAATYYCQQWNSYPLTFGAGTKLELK	12.7

GET /value?item= antibody 42 (antibody, V domains shown, mouse IgG, kappa light chain; also called clone #42; purified antibody 42) VH: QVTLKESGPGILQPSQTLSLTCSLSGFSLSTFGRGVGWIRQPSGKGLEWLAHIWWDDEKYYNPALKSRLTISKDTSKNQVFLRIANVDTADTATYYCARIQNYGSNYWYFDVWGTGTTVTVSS VL: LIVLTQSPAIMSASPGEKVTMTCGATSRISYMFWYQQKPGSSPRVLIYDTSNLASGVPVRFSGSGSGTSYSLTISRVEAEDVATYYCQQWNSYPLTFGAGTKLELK &field=PMA-induced TGFα release from PC3 cells, percent inhibition, 1 µg/ml returns 14.3
